These data points were gathered from paper PMC8305768.

Test system: PMA-differentiated THP-1 cells
Test: Cytotoxicity against THP-1 macrophages (MTT)
Type: cell-based
Conditions: PMA-differentiated THP-1 macrophages, 72 h, read-out: Toxicity CC50 ± SD Or CC50 Interval Estimation
quantityKind: CC50 (µM)
Could you give me the number in µM? Just the number is fine.

Entry `CCCCCCCCc1noc(CCCCCCCCCCOP(=O)([O-])OCC[N+](C)(C)C)n1` , CC50 reported as 10.8

* * *

Listed below: % inhibition ± SD at 10 μΜ hERG values for each entry.
Molecular target: hERG (Homo sapiens, UniProt Q12809)
Construct: purchased Thermo Fischer Scientific
Sequence (Q12809 whole entry): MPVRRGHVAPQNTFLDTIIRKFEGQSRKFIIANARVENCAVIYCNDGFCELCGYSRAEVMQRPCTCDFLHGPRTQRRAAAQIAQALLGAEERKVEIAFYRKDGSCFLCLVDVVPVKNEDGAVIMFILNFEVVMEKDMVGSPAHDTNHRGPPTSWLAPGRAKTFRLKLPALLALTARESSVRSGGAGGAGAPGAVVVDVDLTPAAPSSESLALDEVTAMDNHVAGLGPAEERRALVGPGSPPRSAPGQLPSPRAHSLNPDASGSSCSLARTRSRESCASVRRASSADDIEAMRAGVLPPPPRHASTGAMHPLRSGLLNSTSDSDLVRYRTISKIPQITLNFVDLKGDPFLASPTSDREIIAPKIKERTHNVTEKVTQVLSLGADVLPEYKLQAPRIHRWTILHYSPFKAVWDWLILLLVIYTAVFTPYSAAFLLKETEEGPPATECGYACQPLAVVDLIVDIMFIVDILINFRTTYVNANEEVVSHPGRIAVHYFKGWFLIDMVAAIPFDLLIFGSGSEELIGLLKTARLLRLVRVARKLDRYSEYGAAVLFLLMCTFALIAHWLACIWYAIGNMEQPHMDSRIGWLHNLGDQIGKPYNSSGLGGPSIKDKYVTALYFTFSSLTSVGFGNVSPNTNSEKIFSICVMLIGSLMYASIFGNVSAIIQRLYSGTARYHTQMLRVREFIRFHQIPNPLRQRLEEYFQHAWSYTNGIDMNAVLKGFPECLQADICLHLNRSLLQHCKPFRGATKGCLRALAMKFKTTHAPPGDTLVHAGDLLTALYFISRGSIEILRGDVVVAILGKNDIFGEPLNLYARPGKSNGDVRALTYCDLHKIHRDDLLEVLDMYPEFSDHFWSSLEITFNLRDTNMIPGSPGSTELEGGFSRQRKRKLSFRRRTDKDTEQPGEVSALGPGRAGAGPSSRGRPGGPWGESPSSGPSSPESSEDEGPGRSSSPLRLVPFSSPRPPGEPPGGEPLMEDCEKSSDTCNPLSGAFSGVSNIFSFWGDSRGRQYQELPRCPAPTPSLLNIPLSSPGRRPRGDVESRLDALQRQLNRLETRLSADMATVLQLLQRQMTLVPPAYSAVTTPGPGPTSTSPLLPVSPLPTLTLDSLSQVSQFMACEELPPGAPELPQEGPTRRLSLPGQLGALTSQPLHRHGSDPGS
Test: hERG cardiotoxicity assay (Predictor hERG fluorescence polarization)
Assay type: binding
Settings: compounds 10 μM; miltefosine 10 μM or 1 μM
Could you give me the number in %? Just the number is fine.

- molecule: "C[N+](C)(C)CCCOP(=O)([O-])OCCCCCCCCCCCn1cc(CC2CCCCC2)nn1 [Compound 33]"
  reportedValue: 16.60

From here, focus on the item given below.
Entry CCCCCCCc1nnc(CCCCCCCCCCOP(=O)([O-])OCC[N+](C)(C)C)o1 [Compound 65] , % inhibition ± SD at 10 μΜ hERG reported as 8.64

* * *

Target: CYP2D6 (Homo sapiens, UniProt P10635)
Construct: purchased Corning Inc; host or cells: baculovirus-infected insect cells
Sequence (P10635 whole entry): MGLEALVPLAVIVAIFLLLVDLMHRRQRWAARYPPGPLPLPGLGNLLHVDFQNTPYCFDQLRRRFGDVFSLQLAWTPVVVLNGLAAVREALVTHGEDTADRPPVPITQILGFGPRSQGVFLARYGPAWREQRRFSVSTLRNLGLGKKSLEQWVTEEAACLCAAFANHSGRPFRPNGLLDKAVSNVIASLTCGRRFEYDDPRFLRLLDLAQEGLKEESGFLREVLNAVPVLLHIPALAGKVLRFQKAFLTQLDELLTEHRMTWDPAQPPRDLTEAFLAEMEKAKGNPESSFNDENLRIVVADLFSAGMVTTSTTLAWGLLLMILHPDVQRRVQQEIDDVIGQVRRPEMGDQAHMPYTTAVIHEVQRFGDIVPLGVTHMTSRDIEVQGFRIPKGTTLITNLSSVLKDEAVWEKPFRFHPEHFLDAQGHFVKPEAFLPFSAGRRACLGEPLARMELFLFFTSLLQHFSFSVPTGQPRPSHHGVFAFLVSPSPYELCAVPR
Assay: Cytochrome P450 inhibition assay (P450-Glo) CYP2D6
Type: in vitro ADME
Conditions: compounds 10 μM; miltefosine 10 μM or 1 μM
quantityKind: % inhibition ± SD at 10 μΜ CYP2D6

Solved cases (3 shown):
- molecule: "C[N+](C)(C)CCOP(=O)([O-])OCCCCCCCCCCCn1cc(CCCCCCCCC(=O)O)nn1 [Compound 34]"
  measuredTarget: "CYP2D6 (Homo sapiens, UniProt P10635)"
  % inhibition ± SD at 10 μΜ CYP2D6: "23.08%"
- molecule: "C[N+](C)(C)CCCOP(=O)([O-])OCCCCCCCCCCCn1cc(CC2CCCCC2)nn1 [Compound 33]"
  measuredTarget: "CYP2D6 (Homo sapiens, UniProt P10635)"
  % inhibition ± SD at 10 μΜ CYP2D6: "9.87±6.48%"
- molecule: "CCCCCCCCCCCCCCCCOP(=O)([O-])OCC[N+](C)(C)C [Miltefosine, hexadecylphosphocholine, reference compound]"
  measuredTarget: "CYP2D6 (Homo sapiens, UniProt P10635)"
  % inhibition ± SD at 10 μΜ CYP2D6: "30.83%"

Entry CCCCCCCCc1noc(CCCCCCCCCCOP(=O)([O-])OCC[N+](C)(C)C)n1 [Compound 54] , % inhibition ± SD at 10 μΜ CYP2D6 reported as 6.07%

Entry C[N+](C)(C)CCOP(=O)([O-])OCCCCCn1cc(CCCCCCCCNC(=O)OCc2ccccc2)nn1 [Compound 31] , % inhibition ± SD at 10 μΜ CYP2D6 reported as 11.06%

Entry C[N+](C)(C)CCOP(=O)([O-])OCCCCCn1cc(CCCCCCCCN)nn1 [Compound 35] , % inhibition ± SD at 10 μΜ CYP2D6 reported as 7.26%

* * *

Test system: T. b. brucei L427 WT bloodstream form
Test: Activity against T. brucei bloodstream forms (resazurin-based assay)
Format: cell-based
Settings: Trypanosoma brucei; 10 μM, 72 h; read-out: Single Dose Assay 10μM Mean Inhibitory Activity (%) ± SD
Protocol: Trypanosoma brucei brucei Lister 427 bloodstream forms were grown at 37 °C, 5% CO2 in complete HMI-9 medium supplemented with 10% foetal calf serum (FCS) and 100 UI/mL of penicillin/streptomycin. […] The efficacy of compounds against T. brucei bloodstream forms was evaluated using a modified resazurin-based assay previously described. […] Fluorescence was measured at 540 nm and 620 nm excitation and emission wavelength, respectively, using a Synergy 2 Multi-Mode Reader (Biotek, Winooski, VT, USA).
Listed below: inhibition at 10 µM values for each entry.
Could you give me the number in %? Just the number is fine.

Entry `C[N+](C)(C)CCOP(=O)([O-])OCCCCCCCCCCCn1cc(CCCCCCCCN)nn1` , inhibition at 10 µM reported as 30

Entry `C[N+](C)(C)CCCOP(=O)([O-])OCCCCCCCCCCCn1cc(CC2CCCCC2)nn1` , inhibition at 10 µM reported as 23

Entry `C[N+](C)(C)CCOP(=O)([O-])OCCCCCCCCCCCn1cc(CCCCCCCCNC(=O)OCc2ccccc2)nn1` , inhibition at 10 µM reported as 36

Entry `C[N+](C)(C)CCOP(=O)([O-])OCCCCCn1cc(CCCCCCCCNC(=O)OCc2ccccc2)nn1` , inhibition at 10 µM reported as 20
